Answer each item with its documented IC50.
# ASSAYED_TARGET: UniProt O00763
# ASSAY: Human ACC2 enzyme assay, Assay B2 (ADP-Glo)

Ask: Suppose we examine the molecule COCC1(C)NC(=O)C(c2cc(-c3ccc(Cl)cc3)ccc2C)=C1O (stereo not drawn) [1-46] ; what IC50 value has been reported?
Reply: > 20 µM

Ask: Repeat for the following molecule: Cc1ccc(-c2ccc(Cl)cc2)cc1C1=C(O)C2(CC2)NC1=O [1-84]
Reply: > 20 µM

Ask: Please do the same for Cc1cc(C)c(-c2ccc(Cl)cc2)c(C)c1C1=C(O)C2(CCCC2)OC1=O [2-49] as well.
Reply: > 20 µM

---

# ASSAYED_TARGET: recombinant human ACC1 (Homo sapiens, UniProt Q13085)
# ASSAY: Human ACC1 enzyme assay, Assay A1 (HTRF ADP immunoassay);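 note: ADP generated by the enzyme quantified via competitive time-resolved FRET, read as europium cryptate to d2 energy transfer after 1 h at 22 °C with labelled ADP tracer and anti-ADP antibody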
Provide the recorded pIC50 for the entries that follow.
pIC50 here: minus log base 10 of the concentration, concentration in moles per litre.

Ask: For "CCO[C@H]1CC[C@]2(CC1)NC(=O)C(c1cc(-c3ccc(Cl)cc3)ccc1C)=C2O" , what is its reported pIC50?
Reply: 6.71

Ask: Now consider "Cc1ccc(-c2ccc(Cl)cc2)cc1C1=C(O)[C@]2(CC[C@H](C(F)(F)F)CC2)NC1=O" and answer again.
Reply: 6.69

Ask: Consider next the molecule "Cc1ccc(-c2ccc(Cl)c(F)c2)c(C)c1C1=C(O)[C@]2(CC[C@H](C(F)(F)F)CC2)NC1=O" in the same way.
Reply: 6.52

---

# ASSAYED_TARGET: human ACC2 (acetyl-coenzyme A carboxylase 2) (Homo sapiens)
# Sequence (O00763 27-2458 limits assumed): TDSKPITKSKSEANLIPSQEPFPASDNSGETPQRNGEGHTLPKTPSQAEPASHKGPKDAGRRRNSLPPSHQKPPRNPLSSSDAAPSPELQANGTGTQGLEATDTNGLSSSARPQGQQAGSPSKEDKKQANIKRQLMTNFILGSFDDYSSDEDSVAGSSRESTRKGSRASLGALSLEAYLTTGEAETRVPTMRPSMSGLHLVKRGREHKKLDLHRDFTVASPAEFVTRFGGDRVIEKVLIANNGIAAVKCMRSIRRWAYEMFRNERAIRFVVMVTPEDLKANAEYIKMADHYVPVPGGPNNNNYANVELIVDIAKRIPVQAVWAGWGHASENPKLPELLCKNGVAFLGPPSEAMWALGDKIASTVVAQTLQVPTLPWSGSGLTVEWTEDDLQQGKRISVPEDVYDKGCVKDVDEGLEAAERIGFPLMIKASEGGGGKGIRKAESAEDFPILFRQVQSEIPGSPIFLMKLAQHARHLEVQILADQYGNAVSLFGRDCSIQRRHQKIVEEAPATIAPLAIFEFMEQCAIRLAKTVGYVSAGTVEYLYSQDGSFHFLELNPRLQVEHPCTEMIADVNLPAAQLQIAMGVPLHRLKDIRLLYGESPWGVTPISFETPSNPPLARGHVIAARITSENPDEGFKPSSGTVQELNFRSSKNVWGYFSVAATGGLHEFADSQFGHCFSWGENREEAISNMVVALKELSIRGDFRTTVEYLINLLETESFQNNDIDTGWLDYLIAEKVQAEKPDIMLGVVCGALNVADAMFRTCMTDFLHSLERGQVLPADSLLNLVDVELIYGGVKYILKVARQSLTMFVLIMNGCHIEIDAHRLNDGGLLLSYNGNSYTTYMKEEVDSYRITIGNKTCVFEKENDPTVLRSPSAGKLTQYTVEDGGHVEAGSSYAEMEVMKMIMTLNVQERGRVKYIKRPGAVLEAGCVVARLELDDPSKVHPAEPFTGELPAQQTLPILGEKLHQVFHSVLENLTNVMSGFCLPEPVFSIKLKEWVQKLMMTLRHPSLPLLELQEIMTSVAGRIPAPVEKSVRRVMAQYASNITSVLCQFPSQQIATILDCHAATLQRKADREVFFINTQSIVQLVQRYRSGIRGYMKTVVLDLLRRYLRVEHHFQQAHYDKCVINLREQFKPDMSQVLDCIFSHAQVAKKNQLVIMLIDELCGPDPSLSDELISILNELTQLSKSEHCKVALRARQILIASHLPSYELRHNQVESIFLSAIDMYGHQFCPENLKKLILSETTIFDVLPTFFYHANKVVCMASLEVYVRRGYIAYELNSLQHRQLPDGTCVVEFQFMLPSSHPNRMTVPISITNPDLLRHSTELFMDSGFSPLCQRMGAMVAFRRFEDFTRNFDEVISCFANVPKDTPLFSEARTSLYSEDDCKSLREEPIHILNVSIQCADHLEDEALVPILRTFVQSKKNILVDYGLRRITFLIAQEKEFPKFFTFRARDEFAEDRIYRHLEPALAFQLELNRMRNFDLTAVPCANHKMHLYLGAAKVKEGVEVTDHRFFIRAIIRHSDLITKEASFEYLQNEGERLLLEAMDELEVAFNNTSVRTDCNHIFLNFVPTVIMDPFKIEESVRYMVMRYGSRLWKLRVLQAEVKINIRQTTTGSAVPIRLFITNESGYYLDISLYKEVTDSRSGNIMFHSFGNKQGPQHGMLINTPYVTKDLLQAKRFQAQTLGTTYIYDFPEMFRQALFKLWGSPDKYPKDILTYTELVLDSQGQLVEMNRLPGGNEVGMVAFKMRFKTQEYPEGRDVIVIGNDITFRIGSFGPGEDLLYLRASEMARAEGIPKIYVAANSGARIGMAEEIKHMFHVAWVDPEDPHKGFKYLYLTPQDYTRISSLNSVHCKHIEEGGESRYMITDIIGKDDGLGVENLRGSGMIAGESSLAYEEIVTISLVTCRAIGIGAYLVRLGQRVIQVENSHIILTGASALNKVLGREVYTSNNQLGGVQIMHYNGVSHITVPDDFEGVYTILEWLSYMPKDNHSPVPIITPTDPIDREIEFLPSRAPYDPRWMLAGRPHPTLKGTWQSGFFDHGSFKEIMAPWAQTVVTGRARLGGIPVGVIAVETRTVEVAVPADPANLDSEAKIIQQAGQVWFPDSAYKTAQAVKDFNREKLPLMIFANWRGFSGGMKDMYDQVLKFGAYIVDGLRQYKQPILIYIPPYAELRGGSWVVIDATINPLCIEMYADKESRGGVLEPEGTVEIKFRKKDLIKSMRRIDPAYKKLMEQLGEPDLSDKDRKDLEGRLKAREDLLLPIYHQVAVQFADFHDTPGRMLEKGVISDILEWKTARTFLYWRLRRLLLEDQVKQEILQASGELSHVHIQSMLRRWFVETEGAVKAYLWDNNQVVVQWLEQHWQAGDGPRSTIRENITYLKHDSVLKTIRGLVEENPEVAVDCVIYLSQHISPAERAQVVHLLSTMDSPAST
# ASSAY: Human ACC2 enzyme assay, Assay B2 (ADP-Glo);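 note: human ACC2 activity read as ADP product, detected by luciferase glow luminescence after residual ATP removal, enzyme near 2 ng/µl in linear range, detection steps at 22 °C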
Lab note: cut-off is 3 µM. Strictly less in IC50 is Y. Exactly 3 µM or more is N.

Ask: Say whether its IC50 is strictly beneath 3 µM. Entry: "Cc1ccc(-c2ccc(C(F)(F)F)cc2)cc1-c1c(O)c2ccc(Cl)cc2[nH]c1=O"
Reply: N

Ask: How about Cc1cc(C)c(-c2ccc(Cl)cc2)cc1C1=C(O)C2(CCCOC2)NC1=O (centres unmarked) ?
Reply: N

Ask: Repeat with CCOC1CCCC2(C1)NC(=O)C(c1c(C)ccc(-c3ccc(Cl)cc3)c1C)=C2O (centres unmarked)
Reply: N

Ask: How about this compound: Cc1ccc(-c2ccc(Cl)cc2)cc1C1=C(O)C(C)N(C(C)C)C1=O (centres unmarked)
Reply: N

Ask: Same lookup for "Cc1ccc(-c2ccc(Cl)cc2Cl)cc1C1=C(O)C2(CCCCC2)CC1=O" , please.
Reply: N

Ask: Cool, now "CO[C@H]1CC[C@]2(CC1)NC(=O)C(c1cc(-c3ccc(Cl)cc3)c(C)cc1C)=C2O"
Reply: Y

Ask: How about this compound: CCC1CCC2(CC1)OC(=O)C(c1cc(-c3ccc(Cl)cc3)ccc1C)=C2O (centres unmarked)
Reply: N

Ask: Next up: Cc1ccc(-c2ccc(Cl)cc2)cc1C1=C(O)C2CSCCN2C1=O (centres unmarked)
Reply: N

Ask: Queued: "Cc1ccc(-c2ccc(Cl)cc2)c(C)c1C1=C(O)[C@]2(CC[C@H](C(F)(F)F)CC2)NC1=O"
Reply: Y

Ask: Same thing, different compound: "Cc1cc(C)c(-c2ccc(Cl)cc2)cc1C1=C(O)C2(CCOCC2)OC1=O"
Reply: N

Ask: Also check "Cc1ccc(-c2ccc(Cl)cc2)cc1C1=C(O)CN(C2CC2)C1=O"
Reply: N

Ask: Field entry: "CO[C@H]1CC[C@]2(CC1)NC(=O)C(c1cc(-c3ccc(Cl)cc3)cc(F)c1C)=C2O"
Reply: N

Ask: Repeat for the following compound: "Cc1ccc(-c2ccc(Cl)cc2)cc1C1=C(O)C(C)(C)C(C)(C)NC1=O"
Reply: N

Ask: Same lookup for "CCO[C@H]1CC[C@]2(CC1)NC(=O)C(c1cc(-c3ccc(Cl)cc3)ccc1C)=C2O" , please.
Reply: Y

Ask: Check "Cc1cc(C)c(-c2ccc(Cl)cc2)c(C)c1C1=C(O)C2(CCCCCC2)OC1=O" too.
Reply: Y

Ask: Next entry: "CC[C@]1(OC)CC[C@@]2(CC1)NC(=O)C(c1c(C)ccc(-c3ccc(Cl)cc3)c1C)=C2O"
Reply: N

Ask: One more compound: COCC1CCC2(CC1)NC(=O)C(c1cc(-c3ccc(Cl)cc3)ccc1C)=C2O (centres unmarked)
Reply: Y

Ask: Now try "Cc1ccc(-c2ccc(Cl)cc2)cc1C1=C(O)C2(CCC3(CC2)OCCO3)OC1=O" .
Reply: N

Ask: Repeat with Cc1ccc(-c2ccc(Cl)cc2)cc1C1=C(O)C2(CCC(C(C)C)CC2)NC1=O (centres unmarked)
Reply: Y

Ask: What would you report for "Cc1ccc(-c2ccc(F)cc2)c(C)c1C1=C(O)C2(CCCCC2)NC1=O" ?
Reply: N

Ask: What about "Cc1ccc(-c2ccc(F)c(F)c2)cc1C1=C(O)[C@]2(CC[C@@H](C(F)(F)F)CC2)NC1=O" ?
Reply: N

Ask: Same question, Cc1ccc(-c2ccc(F)c(F)c2)cc1C1=C(O)C2(CCC3(CCCO3)CC2)NC1=O (centres unmarked) this time
Reply: N

Ask: // query: CCCOC1CCC2(CC1)OC(=O)C(c1cc(-c3ccc(Cl)cc3)c(C)cc1C)=C2O (centres unmarked)
Reply: Y

Ask: Also "Cc1ccc(-c2ccc(F)cc2)cc1C1=C(O)[C@]2(CC[C@@]3(CCCO3)CC2)OC1=O" , if possible.
Reply: N

Ask: What would you report for CC1CCC2(CC1)NC(=O)C(c1cc(-c3ccc(Cl)cc3)ccc1Cl)=C2O (centres unmarked) ?
Reply: N

Ask: "Cc1ccc(-c2cccc(Cl)c2)cc1C1=C(O)C2(CCCCCC2)OC1=O" ?
Reply: N

---

# ASSAYED_TARGET: human ACC1 (acetyl-coenzyme A carboxylase alpha transcript variant 1) (Homo sapiens, UniProt Q13085)
# Construct: FLAG (C); made in house; host or cells: baculovirus-infected insect cells (Hi5)
# ASSAY: Human ACC1 enzyme assay, Assay B1 (ADP-Glo)
# Type: biochemical
Lab note: anything with IC50 below 300 nM is marked Met; values at 300 nM or higher are marked Not met.

Ask: Lab note: confirm whether the reported IC50 for this compound is below 300 nM, equality not counting. compound: O=C1OC2(CCC3(CCCO3)CC2)C(O)=C1c1cc(-c2ccc(Cl)cc2)ccc1Cl (centres unmarked)
Reply: Not met

Ask: How about this compound: Cc1ccc(-c2ccc(Cl)cc2)cc1C1=C(O)CC(C)CC1=O (centres unmarked)
Reply: Not met

Ask: Okay, and "Cc1ccc(-c2ccc(F)cc2)cc1C1=C(O)C2(CCCCC2)OC1=O" ?
Reply: Not met

Ask: Queued: "CO[C@H]1CC[C@]2(CC1)NC(=O)C(c1c(C)ccc(-c3ccc(F)cc3)c1C)=C2O"
Reply: Not met

Ask: Similarly, "CC1(C)OC(=O)C(c2cc(-c3ccc(Cl)cc3)ccc2Cl)=C(O)C1(C)C" ?
Reply: Not met

Ask: Again, but for "CO[C@H]1CC[C@]2(CC1)NC(=O)C(c1cc(-c3ccc(Cl)c(F)c3)c(Cl)cc1C)=C2O"
Reply: Met

Ask: Then what about the compound "Cc1c(F)cc(-c2ccc(Cl)cc2)cc1C1=C(O)[C@]2(CC[C@H](C(F)(F)F)CC2)NC1=O" ?
Reply: Met

Ask: Another compound to check: "Cc1ccc(-c2ccc(Cl)c(F)c2)c(C)c1C1=C(O)[C@]2(CC[C@H](C(F)(F)F)CC2)NC1=O"
Reply: Met

---

# ASSAYED_TARGET: human ACC1 (acetyl-coenzyme A carboxylase alpha transcript variant 1) (Homo sapiens)
# Construct: FLAG (C); made in house; host or cells: baculovirus-infected insect cells (Hi5)
# ASSAY: Human ACC1 enzyme assay, Assay B1 (ADP-Glo)
# Assay type: biochemical
# STATED_CONDITIONS: Assay B1; read-out: ACC 1 (=B1) IC50
Consider the following compounds; for each one, report its pIC50.
Scale: pIC50 equals -log10([C]), with [C] in mol/L.

Ask: Write down the reported pIC50 of O=C1C(c2cc(-c3ccc(Cl)cc3)ccc2Cl)C(=O)N2C3CCC(C3)N12 (stereo not drawn) , test system: human ACC1 (acetyl-coenzyme A carboxylase alpha transcript variant 1) (Homo sapiens).
Reply: 5.84

Ask: Item: CCOC1CCCC2(C1)NC(=O)C(c1c(C)ccc(-c3ccc(Cl)cc3)c1C)=C2O (stereo not drawn)
Reply: 6.25

Ask: Further, for "Cc1cc(F)c(-c2ccc(Cl)cc2)cc1C1=C(O)[C@]2(CC[C@](O)(C(F)(F)C(F)(F)F)CC2)NC1=O" ?
Reply: 7.01

Ask: Next: "Cc1ccc(-c2ccc(Cl)c(F)c2)c(C)c1C1=C(O)[C@]2(CC[C@](O)(C(F)(F)F)CC2)NC1=O"
Reply: 6.69

Ask: Proceed to "Cc1ccc(-c2ccc(C)c(C3=C(O)C4(CCCCC4)NC3=O)c2)cc1"
Reply: 6.67

Ask: Try "Cc1ccc(-c2ccc(Cl)cc2)cc1C1=C(O)C2(CCC(C)(C)CC2)NC1=O" next.
Reply: 6.64

Ask: Next: "Cc1ccc(-c2ccc(Cl)cc2)cc1C1=C(O)C2(Cc3ccccc3C2)NC1=O"
Reply: 6.54

Ask: Next compound up: "Cc1ccc(-c2ccc(Cl)cc2)cc1C1=C(O)CN(C2CC2)C1=O"
Reply: 6.01

Ask: Queued: "Cc1cc(C)c(-c2ccc(Cl)cc2)cc1C1=C(O)C(C)(C)CCC1=O"
Reply: 5.15

Ask: Let us now turn to "O=C1N[C@]2(CC[C@@H](C(F)(F)F)CC2)C(O)=C1c1cc(-c2ccc(Cl)cc2)ccc1Cl"
Reply: 6.96

Ask: Please do the same for "Cc1ccc(-c2cccc(Cl)c2)cc1C1=C(O)C2(CCCCC2)CC1=O" as well.
Reply: 5.93

Ask: Again, but for "Cc1cc(F)c(-c2ccc(Cl)cc2)cc1C1=C(O)[C@]2(CC[C@](O)(C(F)(F)F)CC2)NC1=O"
Reply: 6.84

Ask: What do we get for "Cc1ccc(-c2ccc(Cl)cc2)cc1C1=C(O)C2(CCCCCCC2)NC1=O" ?
Reply: 6.34

Ask: Next record, please: "O=C1C(c2cc(-c3ccc(F)c(Cl)c3)ccc2Cl)C(=O)N2CCCCN12"
Reply: 5.41

Ask: Could you do the same for "Cc1cc(C)c(-c2ccc(Cl)cc2)cc1C1=C(O)C2(CCCCC2)CC1=O" , please?
Reply: 5.94

Ask: Same lookup for Cc1ccc(-c2ccc(Cl)cc2)c(C)c1C1=C(O)C2(CCC(C)CC2)NC1=O (stereo not drawn) , please.
Reply: 6.45

Ask: Do the same for COCC1CCC2(CC1)NC(=O)C(c1cc(-c3ccc(Cl)cc3)ccc1C)=C2O (stereo not drawn) please
Reply: 6.69

Ask: Please answer likewise for "CC1(C)COC2(CCC3(CC2)NC(=O)C(c2cc(-c4ccc(Cl)cc4)ccc2Cl)=C3O)OC1"
Reply: 5.94

Ask: // repeat for "Cc1ccc(-c2ccc(Cl)c(F)c2)cc1C1=C(O)[C@]2(CC[C@](O)(C(F)(F)F)CC2)NC1=O" and report
Reply: 6.25

Ask: // repeat for Cc1cc(F)c(-c2ccc(Cl)c(F)c2)cc1C1=C(O)C2(CCC(C(F)(F)F)CC2)NC1=O (mixture of isomers) and report
Reply: 7.00

Ask: Same thing, different compound: Cc1ccc(-c2ccc(Cl)cc2)cc1C1=C(O)C(C)(C2CC2)NC1=O (stereo not drawn)
Reply: 6.24

Ask: Same lookup for Cc1ccc(-c2ccc(Cl)cc2)cc1C1=C(O)C(C)(C(C)C)NC1=O (stereo not drawn) , please.
Reply: 6.02

Ask: And "Cc1cc(C)c(-c2ccc(Cl)cc2)cc1C1=C(O)CC(C)(C)CC1=O" ?
Reply: 5.76

Ask: Also, "CC1(F)CN2C(=O)C(c3cc(-c4ccc(Cl)cc4)ccc3Cl)C(=O)N2C1" please.
Reply: 5.87
